Origin of values: patent US10239849B2

Molecular target: glutathione-S-transferase (GST) tagged LXRalpha LBD (ligand binding domain) (Homo sapiens, UniProt Q13133)
Construct: purchased Invitrogen pv4655
Sequence (Q13133 209-447 limits assumed): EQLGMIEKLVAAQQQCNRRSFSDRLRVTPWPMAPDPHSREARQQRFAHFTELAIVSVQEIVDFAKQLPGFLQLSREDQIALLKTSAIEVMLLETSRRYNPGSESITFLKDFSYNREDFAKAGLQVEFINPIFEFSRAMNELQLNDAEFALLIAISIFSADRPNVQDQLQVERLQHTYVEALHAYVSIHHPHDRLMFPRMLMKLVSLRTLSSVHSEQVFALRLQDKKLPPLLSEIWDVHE
Experiment: LanthaScreen TR-FRET Liver X Receptor Coactivator Assay, LXR alpha-LBD
Type: biochemical
Settings: efficacy in relation to reference dual agonist T1317; read-out: LXR alpha activity at max dose (%) (Emax)
Experimental: While running the LanthaScreen™ TR-FRET Liver X Receptor Coactivator Assay, LXR alpha-LBD or LXR beta-LBD was added to ligand test compounds followed by addition of a mixture of a fluorescein-labelled coactivator peptide and terbium-conjugated anti-GST antibody. After an incubation period at room temperature, TR-FRET (time-resolved fluorescence resonance energy transfer) was measured using a filter-based instrument capable of TR-FRET, e.g. PerkinElmer Envision.
assay.endpoint: Emax (%)

CN(C)C(=O)c1ccc(-c2cnc(N3CCN(C(=O)[C@](C)(O)c4ccccc4)CC3)c(C#N)c2)cc1Cl; 27

A: CN(C)C(=O)c1c(Cl)cc(-c2cnc(N3CC4CCC3CN4C(=O)OC(C)(C)C)c(C#N)c2)cc1Cl (stereo not shown)
B: Cc1noc(C)c1CC(=O)N1CCN(c2ncc(-c3ccc(C(=O)N(C)C)c(Cl)c3)cc2C#N)CC1
Q. Which entry has a larger number for Emax, A or B ? Return value: the label identifying the chosen record.
A. B
(B: 23%, A: 11%)

a: CN(C)C(=O)c1ccc(-c2ccc(N3CCN(C(=O)c4ccccc4C(F)(F)F)CC3)cc2)cc1Cl
b: CN(C)C(=O)c1ccc(-c2cnc(N3CCN(C(=O)[C@](O)(c4ccccc4)C(F)(F)F)CC3)c(C#N)c2)cc1Cl
c: CN(C)C(=O)c1ccc(-c2cc(Cl)c(N3CCN(S(=O)(=O)c4c(Cl)cccc4Cl)CC3)c(Cl)c2)cc1Cl
d: CN(C)C(=O)c1ccc(-c2cnc(N3CCN(C(=O)C4CCCCO4)CC3)c(C#N)c2)cc1Cl (stereo not shown)
e: Cc1ccccc1COC(=O)N1CCN(c2ncc(-c3ccc(C(=O)N(C)C)c(Cl)c3)cc2C#N)CC1
Q. Which order do these items take when sorted by rising Emax? List them. Reply with the item labels sorted in the order that was asked for.
A. a, d, c, b, e
(a: 9%, d: 16%, c: 30%, b: 61%, e: 122%)

1: CC(C)(C)OC(=O)N1CCN(c2ncc(-c3ccc(C(=O)N4CCCC4)c(Cl)c3)cc2C#N)CC1
2: CC(C)C(=O)C(=O)N1CCN(c2ncc(-c3cc(Cl)c(C(=O)N(C)C)c(Cl)c3)cc2C#N)CC1
3: CN(CCc1ccncc1)C(=O)c1ccc(-c2cnc(N3CCN(C(=O)OC(C)(C)C)CC3)c(C#N)c2)cc1Cl
Q. Rank order required: Emax, descending. # answer = labels listed in requested order
A. 1, 2, 3

1: CN(C)C(=O)c1ccc(-c2cnc(N3CCN(C(=O)C(=O)C(F)(F)F)CC3)c(C#N)c2)cc1Cl
2: CN(C)C(=O)c1ccc(-c2ccc(N3CCN(S(=O)(=O)c4c(Cl)cccc4C(F)(F)F)CC3)cc2)cc1Cl
Q. Compare 1 and 2 and name the one whose reported Emax is smaller. State your choice using its label.
A. 2

1: CN(C)C(=O)c1ccc(-c2cnc(N3CCN(C(=O)C(O)(CCc4ccccc4)C(F)(F)F)CC3)c(C#N)c2)cc1Cl (stereo not shown)
2: CCCC(O)(C(=O)N1CCN(c2ncc(-c3ccc(C(=O)N(C)C)c(Cl)c3)cc2C#N)CC1)C(F)(F)C(F)(F)F (stereo not shown)
3: CN(C)C(=O)c1ccc(-c2ccc(N3CCN(C(=O)c4c(F)cccc4C(F)(F)F)CC3)cc2)cc1Cl
Q. Arrange by Emax, high to low. Please respond by ranking the labels in the order requested.
A. 1, 2, 3
(1: 55%, 2: 36%, 3: 20%)

a: C=CCN(C(=O)c1ccc(-c2cnc(N3CCN(C(=O)OC(C)(C)C)CC3)c(C#N)c2)cc1Cl)C1CCS(=O)(=O)C1 (stereo not shown)
b: CNC(=O)c1ccc(-c2cnc(N3CCN(C(=O)[C@](O)(c4ccccc4)C(F)(F)F)CC3)c(C#N)c2)cc1Cl
Q. Lower Emax: a or b ? // return label of chosen record
A. b

a: CN(C)C(=O)c1ccc(-c2cnc(N3CCN(C(=O)C4Cc5ccccc54)CC3)c(C#N)c2)cc1Cl (stereo not shown)
b: CN(C)C(=O)c1ccc(-c2cnc(N3CCN(C(=O)C4(c5ccccc5)CC4)CC3)c(C#N)c2)cc1Cl
Q. Two entries are listed, a and b . Which one carries the higher Emax? Selection: enter the item's label.
A. a

a: Cc1nc(CCN(C)C(=O)c2ccc(-c3cnc(N4CCN(C(=O)OC(C)(C)C)CC4)c(C#N)c3)cc2Cl)no1
b: CN(C)NC(=O)c1ccc(-c2cnc(N3CCN(C(=O)OC(C)(C)C)CC3)c(C#N)c2)cc1Cl
c: CN(C)C(=O)c1ccc(-c2cnc(N3CCN(C(=O)C(O)(C4CCCCC4)C(F)(F)F)CC3)c(C#N)c2)cc1Cl (stereo not shown)
Q. # ascending order, key=Emax Answer by writing out the labels in the requested order.
A. c, b, a
(c: 27%, b: 43%, a: 71%)
